Taken from ChEMBL document CHEMBL1201862.

tested on: UACC-62; assay: NCI tumour cell line growth inhibition, 48 h
Activity calls are given as the source filed them. No stated cut-off is given here; in the data, active = GI50 up to about 1.1 µM and inactive = higher.
Reported GI50 is given for each of the following molecules.

{"molecule": "CC(C)CCCC(C)[C@H]1CC[C@H]2[C@@H]3CC[C@H]4C[C@@H](CCC=C(c5cc(Cl)c(O)c(C(=O)OC(C)(C)C)c5)c5cc(Cl)c(O)c(C(=O)OC(C)(C)C)c5)CC[C@]4(C)[C@H]3CC[C@]12C (stereo partly specified)", "GI50": "> 50 µM (inactive)"}
{"molecule": "COc1ccc(/C=C/c2cc(=O)cc(/C=C/c3ccc(OC)c(O)c3)o2)cc1O", "GI50": "1.75 µM (inactive)"}
{"molecule": "CCCCc1c2c(nc3c1CCc1cc(C=O)c(N)nc1-3)/C(=C/c1ccccc1)CCC2", "GI50": "> 100 µM (inactive)"}
{"molecule": "CC(C)(C)OC(=O)[C@H]1CCC(=S)N1Cc1ccccc1", "GI50": "> 100 µM (inactive)"}
{"molecule": "CC1=[N+]([O-])c2ccccc2C(=O)C1=O", "GI50": "55.6 µM (inactive)"}
{"molecule": "CCN(CC)C(=S)SC(C(=O)Nc1nnc(-c2ccc(Cl)cc2)o1)c1ccccc1 (stereo unspecified)", "GI50": "7.35 µM (inactive)"}
{"molecule": "CCCCC/C=C1\\CCC(CN2CCOCC2)C1=O (stereo unspecified)", "GI50": "12.4 µM (inactive)"}
{"molecule": "O=C(c1ccccc1)c1ccc(-n2c3ccccc3c3ccc4c(c32)C(=O)C=CC4=O)cc1", "GI50": "13.1 µM (inactive)"}
{"molecule": "Cn1c2c3c(F)c(F)ccc3nc-2cc2ccccc21", "GI50": "3.44 µM (inactive)"}
{"molecule": "O=c1cc(/C=C/c2ccc(O)c(O)c2)cc(/C=C/c2ccc(O)c(O)c2)o1", "GI50": "8.39 µM (inactive)"}
{"molecule": "COC1OC(Cn2c(C)nc(Br)c2Br)C(O)C(O)C1O (stereo unspecified)", "GI50": "> 100 µM (inactive)"}
